molecular target: human somatostatin receptor subtype 2 (Homo sapiens, UniProt P30874); experiment: cAMP assay for SST2R (inhibition of cAMP in CHO-K1 cells); conditions: Table B; inhibition of cAMP via human SST2 receptor; read-out: SST2 potency
Sequence (P30874 whole entry): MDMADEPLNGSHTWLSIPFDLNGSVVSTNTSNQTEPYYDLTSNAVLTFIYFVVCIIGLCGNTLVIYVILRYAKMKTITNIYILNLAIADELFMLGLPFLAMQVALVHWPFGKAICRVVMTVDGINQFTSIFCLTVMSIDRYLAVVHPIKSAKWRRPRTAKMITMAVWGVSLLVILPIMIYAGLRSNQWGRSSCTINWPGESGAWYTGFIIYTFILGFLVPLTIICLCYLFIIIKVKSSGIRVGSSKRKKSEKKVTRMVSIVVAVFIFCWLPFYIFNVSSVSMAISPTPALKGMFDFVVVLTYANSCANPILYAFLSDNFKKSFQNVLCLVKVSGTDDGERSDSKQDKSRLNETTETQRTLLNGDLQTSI
compounds and their reported EC50

Would you please look over these solved cases?
COMPOUND: C[C@H](NC(=O)c1cnc(OCC(=O)O)c(-c2cc(F)cc(F)c2)c1N1CC[C@](C)(N)C1)C1CC1 [1-247]
TEST_VALUE: > 1000 nM

COMPOUND: COc1ncc(C(=O)NCc2ccon2)c(N2CC[C@](C)(N)C2)c1-c1cc(F)cc(OC(F)F)c1 [1-239]
TEST_VALUE: > 1000 nM

COMPOUND: C[C@]1(N)CCN(c2c(C(=O)NC34CC(C3)C4)cncc2-c2cc(F)cc(F)c2)C1 [1-21]
TEST_VALUE: 10 to 100 nM

COMPOUND: COc1ncc(C(=O)NC23CC(F)(C2)C3)c(N2CC[C@H](N)C2)c1-c1cc(F)cc(Cl)c1 [1-286]
TEST_VALUE: 100 to 1000 nM

COMPOUND: Cc1ncc(C(=O)NC2CCC(F)(F)CC2)c(N2CC[C@H](N)C2)c1-c1cc(F)cc(Cl)c1 [1-277]
TEST_VALUE: > 1000 nM

Query: Would you mind telling me what EC50 value was observed for C[C@H](NC(=O)c1cnc(C(F)(F)F)c(-c2cc(F)cc(Cl)c2)c1N1CC[C@](C)(N)C1)C1CC1 [1-195] ?
Response: 10 to 100 nM

Query: Request the reported EC50 associated with Cc1ncc(C(=O)N[C@@H](C)C(F)(F)F)c(N2CC[C@H](N)C2)c1-c1cccc(OC(F)F)c1 [1-232]
Response: > 1000 nM

Query: Which EC50 is listed for Cc1ncc(C(=O)N[C@@H](C)C2CC2)c(N2CC[C@](C)(N)C2)c1-c1cc(F)cc(OC(F)F)c1 [1-173] ?
Response: 100 to 1000 nM

* * *

target: human somatostatin receptor subtype 2 (Homo sapiens); assay: cAMP assay for SST2R (inhibition of cAMP in CHO-K1 cells); conditions: Table B; inhibition of cAMP via human SST2 receptor; read-out: SST2 potency
REPORTED_PROPERTY: EC50

MOLECULE: Cc1cc(F)cc(-c2cncc(C(=O)NC3CCc4ccccc43)c2N2CC[C@](C)(N)C2)c1 (stereo partly shown)
EC50: 100 to 1000 nM
--
MOLECULE: COc1ncc(C(=O)N[C@@H](C)C(F)(F)F)c(N2CC[C@](C)(N)C2)c1-c1cccc2c1OC(F)(F)O2
EC50: 100 to 1000 nM
--
MOLECULE: COc1ncc(C(=O)N[C@@H](C)C2CC2)c(N2CC[C@H](N)C2)c1-c1cc(F)cc(Cl)c1
EC50: 100 to 1000 nM

Query: Quick one: EC50 for Cc1ncc(C(=O)N[C@@H](C)C(F)(F)F)c(N2CC[C@](C)(N)C2)c1-c1cc(F)cc(OC(F)F)c1 ?
Response: 10 to 100 nM

Query: Sample Cn1nccc1CNC(=O)c1cnc(C#N)c(-c2cc(F)cc(F)c2)c1N1CC[C@](C)(N)C1 — what was its EC50?
Response: > 1000 nM

* * *

target: human somatostatin receptor subtype 5 (Homo sapiens, UniProt P35346); construct: expressed in transfected cells; assay: cAMP assay for SST5R (inhibition of cAMP in CHO-K1 cells); type: cell-based; settings: Table B; class symbols; SST5 receptor over SST2 receptor
Sequence (P35346 whole entry): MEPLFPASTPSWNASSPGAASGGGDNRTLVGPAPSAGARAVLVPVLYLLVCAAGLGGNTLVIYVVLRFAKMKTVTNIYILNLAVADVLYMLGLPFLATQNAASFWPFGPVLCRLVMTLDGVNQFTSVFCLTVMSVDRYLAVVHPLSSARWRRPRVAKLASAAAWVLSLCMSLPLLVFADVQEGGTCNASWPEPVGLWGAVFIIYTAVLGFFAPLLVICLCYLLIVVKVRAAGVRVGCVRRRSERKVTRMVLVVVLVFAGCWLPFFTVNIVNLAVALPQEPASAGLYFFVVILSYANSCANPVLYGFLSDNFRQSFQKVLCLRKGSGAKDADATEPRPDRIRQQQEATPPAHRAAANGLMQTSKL
REPORTED_PROPERTY: Fold selectivity for SST5 vs SST2

RECORD_SMILES: Cc1ncc(C(=O)N[C@@H](C)C2CC2)c(N2CC[C@](C)(N)C2)c1-c1ccnc(C(F)(F)F)c1
REPORTED_PROPERTY: Fold selectivity for SST5 vs SST2
TEST_VALUE: +++ (+++=>500)

RECORD_SMILES: C[C@]1(N)CCN(c2c(C(=O)NC3CCCC3)cnc(C#N)c2-c2cc(F)cc(F)c2)C1
REPORTED_PROPERTY: Fold selectivity for SST5 vs SST2
TEST_VALUE: +++ (+++=>500)

RECORD_SMILES: C[C@]1(N)CCN(c2c(C(=O)NC3CCCC3)cnc(C#N)c2-c2ccnc(C(F)(F)F)c2)C1
REPORTED_PROPERTY: Fold selectivity for SST5 vs SST2
TEST_VALUE: +++ (+++=>500)

* * *

target: human somatostatin receptor subtype 5 (Homo sapiens, UniProt P35346); construct: expressed in transfected cells; test: cAMP assay for SST5R (inhibition of cAMP in CHO-K1 cells); type: cell-based; conditions: Table B; class symbols; SST5 receptor over SST2 receptor
REPORTED_PROPERTY: Fold selectivity for SST5 vs SST2

COMPOUND: C[C@H](NC(=O)c1cnc(C#N)c(-c2ccn(C)n2)c1N1CC[C@](C)(N)C1)C1CC1
TEST_TARGET: human somatostatin receptor subtype 5 (Homo sapiens, UniProt P35346)
REPORTED_PROPERTY: Fold selectivity for SST5 vs SST2
TEST_VALUE: +++ (+++=>500)

COMPOUND: COc1cc(C#N)cc(-c2c(C(F)(F)F)ncc(C(=O)N[C@@H](C)C3CC3)c2N2CC[C@](C)(N)C2)c1
TEST_TARGET: human somatostatin receptor subtype 5 (Homo sapiens, UniProt P35346)
REPORTED_PROPERTY: Fold selectivity for SST5 vs SST2
TEST_VALUE: +++ (+++=>500)

COMPOUND: Cc1ncc(C(=O)NC2CCC(F)(F)CC2)c(N2CC[C@](C)(N)C2)c1-c1cc(F)cc(OC(F)F)c1
TEST_TARGET: human somatostatin receptor subtype 5 (Homo sapiens, UniProt P35346)
REPORTED_PROPERTY: Fold selectivity for SST5 vs SST2
TEST_VALUE: +++ (+++=>500)

COMPOUND: CCC1(NC(=O)c2cncc(-c3cc(C)cc(F)c3)c2N2CC[C@](C)(N)C2)CCC1
TEST_TARGET: human somatostatin receptor subtype 5 (Homo sapiens, UniProt P35346)
REPORTED_PROPERTY: Fold selectivity for SST5 vs SST2
TEST_VALUE: ++ (++=100 to 499)

COMPOUND: CCC(CC)NC(=O)c1cnc(C#N)c(-c2cc(F)cc(F)c2)c1N1CC[C@H](N)C1
TEST_TARGET: human somatostatin receptor subtype 5 (Homo sapiens, UniProt P35346)
REPORTED_PROPERTY: Fold selectivity for SST5 vs SST2
TEST_VALUE: +++ (+++=>500)

Query: Request body: readout Fold selectivity for SST5 vs SST2, system human somatostatin receptor subtype 5 (Homo sapiens, UniProt P35346), query CC(NC(=O)c1cnc(C#N)c(-c2cc(F)cc(F)c2)c1N1CC[C@](C)(N)C1)c1ncccn1 (stereo partly shown) . Return the value.
Response: +++ (+++=>500)

Query: Please tell me: Fold selectivity for SST5 vs SST2 of C[C@H](NC(=O)c1cnc(OCC(=O)O)c(-c2cc(F)cc(F)c2)c1N1CC[C@](C)(N)C1)C1CC1 , system human somatostatin receptor subtype 5 (Homo sapiens, UniProt P35346)?
Response: +++ (+++=>500)

Query: Notebook entry, human somatostatin receptor subtype 5 (Homo sapiens, UniProt P35346) assay: Fold selectivity for SST5 vs SST2 of C[C@]1(N)CCN(c2c(C(=O)NCc3ncccn3)cnc(C#N)c2-c2cc(F)cc(F)c2)C1 = ?
Response: +++ (+++=>500)

Query: Find Fold selectivity for SST5 vs SST2 (human somatostatin receptor subtype 5 (Homo sapiens, UniProt P35346)) for the entry COc1ncc(C(=O)N[C@@H](C)c2ccccn2)c(N2CC[C@](C)(N)C2)c1-c1cc(F)cc(Cl)c1
Response: +++ (+++=>500)

Query: Recorded Fold selectivity for SST5 vs SST2 for COc1ncc(C(=O)N[C@@H](C)C2CC2)c(N2CC[C@](C)(N)C2)c1-c1ccc(Cl)c(F)c1 with human somatostatin receptor subtype 5 (Homo sapiens, UniProt P35346), please?
Response: +++ (+++=>500)

Query: Entry C[C@H](NC(=O)c1cnc(C#N)c(-c2cc(F)cc(F)c2)c1N1CC[C@](C)(N)C1)C1CC1 , system human somatostatin receptor subtype 5 (Homo sapiens, UniProt P35346): what Fold selectivity for SST5 vs SST2 was measured?
Response: +++ (+++=>500)

Query: Form field - read-out: Fold selectivity for SST5 vs SST2; system: human somatostatin receptor subtype 5 (Homo sapiens, UniProt P35346); submitted item: C[C@]1(N)CCN(c2c(C(=O)N3C4CC5CC(C4)CC3C5)cncc2-c2nc3cccc(Cl)c3[nH]2)C1
Response: ++ (++=100 to 499)

Query: Item C[C@H](NC(=O)c1cnc(C#N)c(-c2cc(F)cc(F)c2)c1N1CC[C@H](N)C1)C1CC1 with human somatostatin receptor subtype 5 (Homo sapiens, UniProt P35346) - Fold selectivity for SST5 vs SST2?
Response: +++ (+++=>500)

Query: Request - read-out Fold selectivity for SST5 vs SST2 | tested on human somatostatin receptor subtype 5 (Homo sapiens, UniProt P35346) | compound Cc1cccc2[nH]c(-c3cncc(C(=O)N(C)[C@@H](C)C4CC4)c3N3CC[C@](C)(N)C3)nc12
Response: + (+=10 to 99)

Query: Hello, I am looking for reported Fold selectivity for SST5 vs SST2 with human somatostatin receptor subtype 5 (Homo sapiens, UniProt P35346) for Cn1nccc1CNC(=O)c1cnc(C#N)c(-c2cc(F)cc(F)c2)c1N1CC[C@](C)(N)C1 . Could you help?
Response: +++ (+++=>500)

src = patent US12600709B2
